target: hMCR-1a (Homo sapiens (Human), UniProt Q01726); assay: Competitive inhibition binding assay using [I125]-NDP-α-MSH, hMCR-1a; conditions: membrane homogenates of HEK-293 cells, human recombinant receptor, averaged, read-out: MC-1 Ki (average)
Sequence (Q01726 whole entry): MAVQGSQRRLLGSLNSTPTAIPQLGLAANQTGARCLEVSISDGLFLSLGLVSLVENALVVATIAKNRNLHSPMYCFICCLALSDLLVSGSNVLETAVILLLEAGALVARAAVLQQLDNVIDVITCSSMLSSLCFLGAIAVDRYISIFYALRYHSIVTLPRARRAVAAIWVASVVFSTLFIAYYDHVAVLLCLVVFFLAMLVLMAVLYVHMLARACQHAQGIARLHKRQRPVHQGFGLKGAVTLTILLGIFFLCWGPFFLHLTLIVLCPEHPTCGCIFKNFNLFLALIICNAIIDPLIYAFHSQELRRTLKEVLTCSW
Bridge positions count the residues as written; N and C are the ends. Square brackets hold non-standard residues; d marks the D form. Peptide text beside a SMILES is read from it. dPhe(3,4-F2) = N[C@H](Cc1ccc(F)c(F)c1)C(=O)O; Nle = CCCC[C@H](N)C(=O)O; Orn = NCCC[C@H](N)C(=O)O; Dab = NCC[C@H](N)C(=O)O; Dap = NC[C@H](N)C(=O)O
quantity: pKi
Remember the convention: pKi equals -log10 of concentration in molar.

[ask] Form field: pKi recorded for CCCC[C@H](NC(C)=O)C(=O)N[C@H]1CNC(=O)CCC(=O)NCC[C@@H](C(=O)N[C@@H](Cc2c[nH]c3ccccc23)C(N)=O)NC(=O)[C@H](CCCNC(=N)N)NC(=O)[C@@H](Cc2ccccc2)NC(=O)[C@H](Cc2c[nH]cn2)NC1=O with hMCR-1a (Homo sapiens (Human), UniProt Q01726) (enter value)
[reply] 10.19

[ask] Form field: pKi recorded for CCCC[C@H](NC(C)=O)C(=O)N[C@H]1CCC(=O)NCC[C@@H](C(N)=O)NC(=O)[C@H](CCCNC(=N)N)NC(=O)[C@@H](Cc2ccccc2)NC(=O)[C@H](CCCN)NC1=O [Example 9.56, Ac-Nle-cyclo(Glu-Orn-D-Phe-Arg-Dab)-NH2] (Ac-[Nle]E[Orn][dF]R[Dab]-NH2; lactam 2-6) with hMCR-1a (Homo sapiens (Human), UniProt Q01726) (enter value)
[reply] 8.40

[ask] Form field: pKi recorded for CCCC[C@H](NC(C)=O)C(=O)N[C@H]1CCC(=O)NCC[C@@H](C(N)=O)NC(=O)[C@H](CCCNC(=N)N)NC(=O)[C@@H](Cc2ccc(OC)cc2)NC(=O)[C@H](CCCN)NC1=O [Example 9.64] (Ac-[Nle]E[Orn][dY](Me)R[Dab]-NH2; lactam 2-6) with hMCR-1a (Homo sapiens (Human), UniProt Q01726) (enter value)
[reply] 8.70

[ask] Form field: pKi recorded for CCCC[C@H](NC(C)=O)C(=O)N[C@H]1CCC(=O)NCC[C@@H](C(N)=O)NC(=O)[C@H](CCCNC(=N)N)NC(=O)[C@@H](Cc2ccc(F)c(F)c2)NC(=O)[C@H](CCCN)NC1=O [Example 9.62] (Ac-[Nle]E[Orn][dPhe(3,4-F2)]R[Dab]-NH2; lactam 2-6) with hMCR-1a (Homo sapiens (Human), UniProt Q01726) (enter value)
[reply] 7.40

[ask] Form field: pKi recorded for CCCC[C@H](NC(C)=O)C(=O)N[C@H]1CCC(=O)NCC[C@@H](C(N)=O)NC(=O)[C@@H](Cc2ccccc2)NC(=O)[C@H](Cc2c[nH]cn2)NC1=O [Example 9.46, Ac-Nle-cyclo(Glu-His-D-Phe-Dab)-NH2] (Ac-[Nle]EH[dF][Dab]-NH2; lactam 2-5) with hMCR-1a (Homo sapiens (Human), UniProt Q01726) (enter value)
[reply] 5.00

[ask] Form field: pKi recorded for CCCC[C@H](NC(C)=O)C(=O)N[C@H]1CCC(=O)NCC[C@@H](C(=O)N[C@@H](Cc2c[nH]c3ccccc23)C(N)=O)NC(=O)CNC(=O)[C@@H](Cc2ccccc2)NC(=O)[C@H](Cc2c[nH]cn2)NC1=O [Example 9.34] (Ac-[Nle]EH[dF]G[Dab]W-NH2; lactam 2-6) with hMCR-1a (Homo sapiens (Human), UniProt Q01726) (enter value)
[reply] 8.05

[ask] Form field: pKi recorded for CCCC[C@H](NC(C)=O)C(=O)N[C@H]1CC(=O)NC[C@@H](C(=O)N[C@@H](Cc2c[nH]c3ccccc23)C(N)=O)NC(=O)[C@H](CCCNC(=N)N)NC(=O)[C@@H](Cc2ccccc2)NC(=O)[C@H](Cc2c[nH]cn2)NC1=O [Example 9.4] (Ac-[Nle]DH[dF]R[Dap]W-NH2; lactam 2-6) with hMCR-1a (Homo sapiens (Human), UniProt Q01726) (enter value)
[reply] 8.70

[ask] Form field: pKi recorded for CCCC[C@H](NC(C)=O)C(=O)N[C@H]1CCC(=O)NCC[C@@H](C(=O)N[C@@H](C)C(N)=O)NC(=O)[C@H](CCCNC(=N)N)NC(=O)[C@@H](Cc2ccccc2)NC(=O)[C@H](Cc2c[nH]cn2)NC1=O [Example 9.25] (Ac-[Nle]EH[dF]R[Dab]A-NH2; lactam 2-6) with hMCR-1a (Homo sapiens (Human), UniProt Q01726) (enter value)
[reply] 8.70
